Source of measurements: paper PMC6602471

Consider the following sequences; for each one, report its binding signal.
Target: ETS1 (Homo sapiens, UniProt P14921 1-441)
Sequence: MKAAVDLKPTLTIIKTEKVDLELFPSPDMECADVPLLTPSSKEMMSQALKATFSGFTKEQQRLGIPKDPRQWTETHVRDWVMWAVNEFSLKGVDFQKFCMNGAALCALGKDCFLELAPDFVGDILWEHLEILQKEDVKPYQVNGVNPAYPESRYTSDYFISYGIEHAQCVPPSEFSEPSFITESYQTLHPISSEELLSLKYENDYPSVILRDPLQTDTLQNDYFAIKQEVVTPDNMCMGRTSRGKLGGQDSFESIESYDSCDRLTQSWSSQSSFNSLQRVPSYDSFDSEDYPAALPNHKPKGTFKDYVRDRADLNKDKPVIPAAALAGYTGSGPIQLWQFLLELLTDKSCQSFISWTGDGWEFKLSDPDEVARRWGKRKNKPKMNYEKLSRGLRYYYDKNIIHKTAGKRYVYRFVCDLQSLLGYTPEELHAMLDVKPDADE
Assay: custom PBM; custom protein-binding microarray; buffer, salt, pH and temperature not stated; high values mean tight binding
Conditions: dsDNA, one strand shown
In all, about 1,300 sequences were measured (“log fluorescence intensity”: median about 8.3, highest 2% from about 12 on). Only a selection was taken, and the highest values are over-represented in it overall.

Worked set:
Record sequence	binding signal
TGTCGGGTAAGGGAATATAGATCACGTGAATGAAAAGTCTTGATTCGCTTGACGCTGCTG	8.36 log fluorescence intensity
GGAAAAAGGCCCAGGGTAACACCGGATGTGGGCTTAGTCTTGATTCGCTTGACGCTGCTG	11 log fluorescence intensity
GGAAAAAGGCCCAGGGTATCACCGGAAGTGGGCTTAGTCTTGATTCGCTTGACGCTGCTG	11.4 log fluorescence intensity
CCTGCTGCGGTGCATACCCCACCGGATGTGACCCCGGTCTTGATTCGCTTGACGCTGCTG	10.4 log fluorescence intensity
GATTAATCTCTGCCCTTATTCGCACGTGCCATAACAGTCTTGATTCGCTTGACGCTGCTG	8.31 log fluorescence intensity
CGGAAGTGTCGTAAACGTCGGATATCCGGTCCTTCTGTCTTGATTCGCTTGACGCTGCTG	12.1 log fluorescence intensity
CTGGGACTTGACCCAACTCTGCCACGTGGGTCGCTTGTCTTGATTCGCTTGACGCTGCTG	8.36 log fluorescence intensity
GAAAGGGAAGACGGTTGTGGTAGTTCCGGGTATTAAGTCTTGATTCGCTTGACGCTGCTG	8.75 log fluorescence intensity

Dear reader, for each entry below, please note its binding signal.
1. CGGAAGTGTCGTAGACGTCGGATATCCGGTTCTTCTGTCTTGATTCGCTTGACGCTGCTG
2. GGAAATAGGCCCAGGGTAACACCGGAAGTGGGCTTAGTCTTGATTCGCTTGACGCTGCTG
3. GGAAAAAGGCCCAGGGTAACACCGGAAGTGGGGTTAGTCTTGATTCGCTTGACGCTGCTG

1. 11.7 log fluorescence intensity
2. 12 log fluorescence intensity
3. 12 log fluorescence intensity

Dear reader, for each entry below, please note its binding signal.
1. GCTGCTGCGGTGCATACCCCACCGGATGTGACCCGGGTCTTGATTCGCTTGACGCTGCTG
2. GGAAAAAGGCCCAGGGTAACGCCGGAAGTGGGCTTAGTCTTGATTCGCTTGACGCTGCTG
3. TCCGGCTAACAGCTCCACCCACTTCAGGCCTTGTAGGTCTTGATTCGCTTGACGCTGCTG
4. CGGAAGTGTCGCAAACGTCGGATATCCGGTTCTTCTGTCTTGATTCGCTTGACGCTGCTG

1: 10.2 log fluorescence intensity; 2: 10.7 log fluorescence intensity; 3: 8.32 log fluorescence intensity; 4: 12 log fluorescence intensity
